target: Patatin-like phospholipase domain-containing protein 2 (Mus musculus); experiment: Inhibition of murine ATGL expressed in COS-7 cells; type: cell-based
Sequence (Q8BJ56 whole entry, the tested form may be a part): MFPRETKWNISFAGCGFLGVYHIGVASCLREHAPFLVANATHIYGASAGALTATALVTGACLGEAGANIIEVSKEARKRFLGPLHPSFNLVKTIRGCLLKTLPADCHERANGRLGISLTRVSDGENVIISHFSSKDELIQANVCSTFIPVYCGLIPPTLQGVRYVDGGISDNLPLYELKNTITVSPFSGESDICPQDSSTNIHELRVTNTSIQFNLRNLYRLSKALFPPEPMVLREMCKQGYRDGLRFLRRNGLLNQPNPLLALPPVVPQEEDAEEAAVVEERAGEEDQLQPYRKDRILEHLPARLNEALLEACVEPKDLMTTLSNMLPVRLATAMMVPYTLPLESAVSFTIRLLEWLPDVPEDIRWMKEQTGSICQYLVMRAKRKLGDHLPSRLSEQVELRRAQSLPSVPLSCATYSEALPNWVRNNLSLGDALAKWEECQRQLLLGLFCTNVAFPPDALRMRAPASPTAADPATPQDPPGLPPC
Readings of pIC50 for the listed molecules
Scale: pIC50 equals -log10([C]), with [C] in mol/L.

Please review the following examples before continuing.
Structure string | pIC50
CCOC(=O)c1ccnc(-c2ccc(OCC)cc2)c1 | 4.10
CCOc1ccc(-c2cccc(C(=O)OCCOC)c2)cc1 | 4.15
CCOC(=O)c1cccc(-c2ccc(OCC)c([N+](=O)[O-])c2)c1 | 3.70
CCOC(=O)c1ccc(-c2ccc(OCC)cc2)s1 | 4.15
CCOC(=O)c1cccc(-c2ccc(CN(C)C)cc2)c1 | 3.82
CCOC(=O)c1cccc(-c2ccc(CN3CCN(S(C)(=O)=O)CC3)cc2)c1 | 4.00
COC(=O)Nc1cccc(-c2ccc(N(C)C)cc2)c1 | 5.30
CCOC(=O)c1cccc(-c2ccc(OCC)cc2)n1 | 4.22
CCOC(=O)c1cccc(-c2ccc(OCC)nc2)c1 | 3.89
CCOC(=O)Nc1cccc(-c2ccc(N(C)C)cc2)c1 | 5.52

pIC50 for CCNC(=O)c1cccc(-c2ccc(OCC)cc2)c1 is 4.05

pIC50 for CCOc1ccc(-c2cccc(NC(C)=O)c2)cc1 is 3.70

pIC50 for CCOC(=O)c1cccc(-c2ccc(CN3CCCCC3)cc2)c1 is 4.12

###

Readings of inhibition for the listed molecules
target: Patatin-like phospholipase domain-containing protein 2 (Mus musculus); assay: Inhibition of murine ATGL expressed in COS-7 cells at 200 uM relative to control; assay type: cell-based

Reported Patatin-like phospholipase domain-containing protein 2 (Mus musculus) inhibition for item CCOc1ccc(-c2cccc(NC(=O)N(C)C)c2)cc1 was 68%

Reported Patatin-like phospholipase domain-containing protein 2 (Mus musculus) inhibition for item CN(C)c1ccc(-c2cccc(NC(=O)Oc3ccccc3)c2)cc1 was 75%

Reported Patatin-like phospholipase domain-containing protein 2 (Mus musculus) inhibition for item CCOC(=O)c1cccc(-c2ccc(C(=O)CN(C)C)cc2)c1 was 20%

Reported Patatin-like phospholipase domain-containing protein 2 (Mus musculus) inhibition for item CC(C)OC(=O)Nc1cccc(-c2ccc(N(C)C)cc2)c1 was 69%

Reported Patatin-like phospholipase domain-containing protein 2 (Mus musculus) inhibition for item CCOC(=O)c1cccc(-c2ccc3c(c2)CCN3)c1 was 66%

Reported Patatin-like phospholipase domain-containing protein 2 (Mus musculus) inhibition for item CCOC(=O)c1cccc(-c2ccc(OC)cc2)c1 was 77%

Reported Patatin-like phospholipase domain-containing protein 2 (Mus musculus) inhibition for item CCOC(=O)c1cncc(-c2ccc(OCC)cc2)c1 was 70%

Reported Patatin-like phospholipase domain-containing protein 2 (Mus musculus) inhibition for item CCOC(=O)c1ccc(-c2ccc(OCC)cc2)[nH]1 was 44%

###

target: Patatin-like phospholipase domain-containing protein 2 (Mus musculus); assay: Inhibition of murine ATGL
Readings of IC50 for the listed compounds
A number alone suffices; assume µM.

Please review the following examples before continuing.
Structure string | IC50 (µM)
CCOC(=O)c1nn(-c2ccc(OCC)cc2)cc1O | 120
CCOC(=O)c1nn(-c2ccc(OCC)cc2)cc1OC | 90
CCCCOC(=O)c1nn(-c2ccc(OCC)cc2)cc1O | 100

// next entry
IC50 for CCOc1ccc(-n2cc(O)c(C(=O)OC)n2)cc1 is 130
